# Measured On: T1, human receptor tyrosine kinase AXL transcript variant 1 (human, UniProt P30530 26-894)
# T1 construct: Overexpressed on RatI-AXL cl.2 and NIH3T3-AXL cl.7 fibroblasts (pLXSN-hAXL); endogenous on human cancer cell lines and HUVEC in the functional assays; also called hAXL; human AXL
# T1 sequence: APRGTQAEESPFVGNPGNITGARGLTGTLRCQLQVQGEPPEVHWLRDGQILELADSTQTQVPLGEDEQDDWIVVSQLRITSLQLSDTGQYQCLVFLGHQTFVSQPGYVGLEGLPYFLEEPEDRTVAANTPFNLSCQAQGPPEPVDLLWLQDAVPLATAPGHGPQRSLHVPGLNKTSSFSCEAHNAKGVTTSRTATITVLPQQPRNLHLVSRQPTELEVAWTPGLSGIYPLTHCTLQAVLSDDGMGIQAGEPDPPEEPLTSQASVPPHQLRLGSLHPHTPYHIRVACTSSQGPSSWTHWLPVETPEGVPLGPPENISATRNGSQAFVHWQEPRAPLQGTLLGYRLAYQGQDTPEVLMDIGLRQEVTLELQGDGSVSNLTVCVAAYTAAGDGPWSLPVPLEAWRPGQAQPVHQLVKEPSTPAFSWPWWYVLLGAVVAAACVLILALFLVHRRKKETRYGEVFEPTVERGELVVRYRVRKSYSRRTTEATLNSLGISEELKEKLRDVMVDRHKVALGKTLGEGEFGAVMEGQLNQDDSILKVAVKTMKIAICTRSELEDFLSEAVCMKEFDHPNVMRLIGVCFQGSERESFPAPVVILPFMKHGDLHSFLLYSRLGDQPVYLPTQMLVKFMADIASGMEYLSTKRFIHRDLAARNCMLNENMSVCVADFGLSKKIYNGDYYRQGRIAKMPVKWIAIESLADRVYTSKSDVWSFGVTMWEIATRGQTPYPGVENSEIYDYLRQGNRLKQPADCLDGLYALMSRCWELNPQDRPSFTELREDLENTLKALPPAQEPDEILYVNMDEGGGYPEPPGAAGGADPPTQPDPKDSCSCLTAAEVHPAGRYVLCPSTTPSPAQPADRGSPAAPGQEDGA
# Run Description: FACS Scatchard (apparent KD) on human AXL overexpressing NIH3T3 cells
Property: pKd
// field semantics: pKd = negative decimal log of concentration (mol/L)

Consider the following illustrative entries.
binder="ch11D5-IgG2 (antibody, V domains shown, chimeric rat/human IgG2 kappa, expressed in HEK 293 cells; also called chn11D5 IgG2) VH: EVQLQESGPGLVKPSQSLSLTCSVTGYSITSNYWGWIRKFPGNKMEWIGHITNSGNTTYNPSLKSRISISRDTSRNQFFLQLNSVTTEDTATYYCAKGAFDYWGQGVMVTVSS VL: DIQMTQSPSSMSTSLGDRVTITCRASQDIGNYLSWFQQKVGKSPRRMIYGAIKLAVGVPSRFSGSRSGSDYSLTISSLESEDMAIYYCLQYIQFPLTFGSGTKLELKR" numeric_value=9.05
binder="ch11B7-IgG2 (antibody, V domains shown, chimeric rat/human IgG2 kappa, expressed in HEK 293 cells; also called chn11B7 IgG2) VH: EVQLQESGPGLVKPSQSLSLTCSVTGYSITSNYWGWIRKFPGDKMEWMGYITYSGSTSYNPSLKSRISITRDTSKNQFFLQLNSVTSEDTATYYCAITTFYYWGQGVMVTVSS VL: DIQMTQAPSSLPASLGDRVTITCRASQDIGNYLRWFQQKPGKSPRLMISGATNLAAGVPSRFSGSRSGSDYSLTISSLESEDMADYYCLQSKESPWTFGGGTKLELKR" numeric_value=9.22

// next item, pKd requested
Prompt: For the binder I 11B7 (antibody, V domains shown, rat hybridoma antibody, antagonistic) VH: EVQLQESGPGLVKPSQSLSLTCSVTGYSITSNYWGWIRKFPGDKMEWMGYITYSGSTSYNPSLKSRISITRDTSKNQFFLQLNSVTSEDTATYYCAITTFYYWGQGVMVTVSS VL: DIQMTQAPSSLPASLGDRVTITCRASQDIGNYLRWFQQKPGKSPRLMISGATNLAAGVPSRFSGSRSGSDYSLTISSLESEDMADYYCLQSKESPWTFGGGTKLELK , what pKd is on record?
Completion: 9.42
